Recorded residual activity, one value per entry.
# target.desc: Solute carrier organic anion transporter family member 1B1 (Homo sapiens, UniProt Q9Y6L6)
# Sequence (Q9Y6L6 whole entry): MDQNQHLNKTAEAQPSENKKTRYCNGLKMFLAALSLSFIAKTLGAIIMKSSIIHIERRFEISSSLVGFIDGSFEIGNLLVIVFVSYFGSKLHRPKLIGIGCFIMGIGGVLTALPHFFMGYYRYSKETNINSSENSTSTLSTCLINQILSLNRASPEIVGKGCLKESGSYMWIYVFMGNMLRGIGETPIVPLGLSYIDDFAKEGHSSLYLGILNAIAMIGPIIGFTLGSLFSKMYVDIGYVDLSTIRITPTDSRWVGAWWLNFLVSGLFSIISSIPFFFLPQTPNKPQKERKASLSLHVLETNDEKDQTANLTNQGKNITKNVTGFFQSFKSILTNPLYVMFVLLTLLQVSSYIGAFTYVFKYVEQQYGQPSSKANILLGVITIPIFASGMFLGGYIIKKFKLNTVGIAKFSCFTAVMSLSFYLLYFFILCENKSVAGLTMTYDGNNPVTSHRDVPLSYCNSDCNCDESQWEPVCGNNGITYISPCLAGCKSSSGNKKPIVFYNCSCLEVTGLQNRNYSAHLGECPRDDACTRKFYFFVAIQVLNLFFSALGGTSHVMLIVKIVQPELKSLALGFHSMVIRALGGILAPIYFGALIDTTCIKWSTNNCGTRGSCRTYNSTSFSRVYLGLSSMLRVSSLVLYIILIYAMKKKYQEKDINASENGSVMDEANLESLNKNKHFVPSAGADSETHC
# assay.conditions: chinese hamster, cho, 10 µM

# compound, endpoint.unit, residual activity
records = [
    ("CC(=O)c1ccc[nH]1", "%", 111.7),
    ("Cl.N[C@@H]1C[C@H]1c1ccccc1 [TRANYLCYPROMINE HYDROCHLORIDE]", "%", 80.64),
    ("O=C(CCCCC(=O)Nc1c(I)cc(I)c(C(=O)O)c1I)Nc1c(I)cc(I)c(C(=O)O)c1I [IODIPAMIDE]", "%", 90.55),
    ("Cc1ccnc(NS(=O)(=O)c2ccc(N)cc2)n1", "%", 84.88),
    ("CN1C(=O)CCS(=O)(=O)C1c1ccc(Cl)cc1 (stereo not given)", "%", 97.47),
    ("COc1ccc(Cc2nccc3cc(OC)c(OC)cc23)cc1OC.Cl [PAPAVERINE HYDROCHLORIDE]", "%", 266.9),
    ("CC(CN1c2ccccc2Sc2ccccc21)N(C)C.Cl (stereo not given) [PROMETHAZINE HYDROCHLORIDE]", "%", 69.15),
    ("CCOP(=S)(OCC)SCn1c(=O)oc2cc(Cl)ccc21", "%", 116.2),
    ("COc1ccc2c(c1)c(CC(=O)O)c(C)n2C(=O)c1ccc(Cl)cc1", "%", 97.38),
    ("COC(=O)COc1ccc(Cl)cc1Cl", "%", 116.2),
]

---

# target.desc: Solute carrier organic anion transporter family member 1B3 (Homo sapiens, UniProt Q9NPD5)
# Sequence (Q9NPD5 whole entry): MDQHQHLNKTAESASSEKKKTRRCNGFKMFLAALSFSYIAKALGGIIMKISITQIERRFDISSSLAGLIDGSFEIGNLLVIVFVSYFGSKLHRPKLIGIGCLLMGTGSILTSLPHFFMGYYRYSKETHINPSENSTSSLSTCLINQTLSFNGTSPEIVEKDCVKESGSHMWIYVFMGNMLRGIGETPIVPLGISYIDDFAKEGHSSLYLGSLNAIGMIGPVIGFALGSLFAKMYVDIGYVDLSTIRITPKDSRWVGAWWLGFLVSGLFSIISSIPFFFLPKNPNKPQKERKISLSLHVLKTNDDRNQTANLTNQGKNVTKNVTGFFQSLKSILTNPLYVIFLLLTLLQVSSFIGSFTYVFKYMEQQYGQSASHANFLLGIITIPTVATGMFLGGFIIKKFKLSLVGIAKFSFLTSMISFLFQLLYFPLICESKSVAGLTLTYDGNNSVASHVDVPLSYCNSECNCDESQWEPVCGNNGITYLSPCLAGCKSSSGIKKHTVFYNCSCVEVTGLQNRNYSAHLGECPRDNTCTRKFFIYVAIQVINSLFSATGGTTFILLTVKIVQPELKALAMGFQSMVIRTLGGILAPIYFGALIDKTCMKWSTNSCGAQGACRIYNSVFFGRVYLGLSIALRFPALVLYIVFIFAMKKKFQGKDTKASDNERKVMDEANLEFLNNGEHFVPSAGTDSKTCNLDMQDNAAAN
# assay.conditions: chinese hamster, cho, 10 µM

# compound, endpoint.unit, residual activity
measured = [
    ("CC[C@H](C)[C@H](N)C(=O)N1CCC[C@H]1C(=O)N[C@H](C(=O)O)[C@@H](C)CC", "%", 116.8),
    ("c1ccc2c(c1)[nH]c1cnccc12", "%", 87.66),
    ("CO[C@H]1[C@H](O)[C@H](O[C@H]2CC[C@@]3(C=O)[C@H](CC[C@@H]4[C@@H]3CC[C@]3(C)[C@@H](C5=CC(=O)OC5)CC[C@]43O)C2)O[C@@H](C)[C@@H]1O [PERUVOSIDE]", "%", 112.7),
    ("CC(=O)O[C@H]1CC[C@]2(C)[C@H]3C(=O)C=C4[C@@H]5[C@@H](C)[C@H](C)CC[C@]5(C(=O)O)CC[C@@]4(C)[C@]3(C)CC[C@H]2C1(C)C [11-OXOURSOLIC ACID ACETATE]", "%", 5.189),
    ("NC/C=C/C(=O)O", "%", 94.21),
    ("CC1(C)C[C@@H]2C(=O)CC[C@H]3O[C@]3(C)CC[C@H]21", "%", 84.64),
    ("CC(C)=CC1C(CO)C1(C)C (configuration not stated)", "%", 105.2),
]

---

# target.desc: Solute carrier organic anion transporter family member 1B1 (Homo sapiens)
# assay.conditions: chinese hamster, cho, 10 µM
Recorded residual activity, one value per entry.
recorded.endpoint: residual activity (%)

# compound, target.desc, recorded.endpoint, endpoint.unit, reading
records = [
    ("C=CC(C)(O)CC/C=C(\\C)CCC=C(C)C (centres undefined)", "Solute carrier organic anion transporter family member 1B1 (Homo sapiens)", "residual activity", "%", 147.7),
    ("CCOP(=S)(OCC)Oc1ccc2c(C)c(Cl)c(=O)oc2c1", "Solute carrier organic anion transporter family member 1B1 (Homo sapiens)", "residual activity", "%", 99.64),
    ("C=C1CCC2C(CC2(C)C)C(=C)CC/C1=N/O (centres undefined) [5-HYDROXYIMINOISOCARYOPHYLLENE]", "Solute carrier organic anion transporter family member 1B1 (Homo sapiens)", "residual activity", "%", 84.7),
    ("CCc1cccc2c3c([nH]c12)C(CC)(CC(=O)O)OCC3 (centres undefined)", "Solute carrier organic anion transporter family member 1B1 (Homo sapiens)", "residual activity", "%", 68.27),
    ("C/C=C(\\C)C(=O)O[C@@H]1[C@@H]2C=C3[C@@H]4CC(=O)O[C@@H](c5ccoc5)[C@]4(C)CC[C@@H]3[C@@](C)(C2=O)[C@@H]([C@@H](O)C(=O)OC)C1(C)C", "Solute carrier organic anion transporter family member 1B1 (Homo sapiens)", "residual activity", "%", 14.03),
    ("CC(=O)Nc1cccc(O)c1", "Solute carrier organic anion transporter family member 1B1 (Homo sapiens)", "residual activity", "%", 66.39),
    ("O=C1c2ccccc2-c2cccc3cccc1c23", "Solute carrier organic anion transporter family member 1B1 (Homo sapiens)", "residual activity", "%", 127.3),
    ("Cc1ncc([N+](=O)[O-])n1CC(C)O (centres undefined)", "Solute carrier organic anion transporter family member 1B1 (Homo sapiens)", "residual activity", "%", 132.9),
    ("COc1ccc(CC(=O)c2ccc(O)cc2O)cc1", "Solute carrier organic anion transporter family member 1B1 (Homo sapiens)", "residual activity", "%", 149.8),
    ("O=C(O)C1CCCNC1 (centres undefined)", "Solute carrier organic anion transporter family member 1B1 (Homo sapiens)", "residual activity", "%", 91.42),
    ("CC(C)CC(NC(=O)OCC1c2ccccc2-c2ccccc21)C(=O)O (single isomer, unassigned)", "Solute carrier organic anion transporter family member 1B1 (Homo sapiens)", "residual activity", "%", 32.48),
    ("CC(C)(C)NCC(O)c1cc(O)cc(O)c1.O=S(=O)(O)O (centres undefined)", "Solute carrier organic anion transporter family member 1B1 (Homo sapiens)", "residual activity", "%", 89.3),
    ("Cl.Cl.NCCSSCCN [CYSTAMINE DIHYDROCHLORIDE]", "Solute carrier organic anion transporter family member 1B1 (Homo sapiens)", "residual activity", "%", 111.3),
    ("COc1cc(-c2coc3cc(O[C@@H]4O[C@H](CO)[C@@H](O)[C@H](O)[C@H]4O)c(OC)c(O)c3c2=O)cc(O)c1OC", "Solute carrier organic anion transporter family member 1B1 (Homo sapiens)", "residual activity", "%", 114.5),
    ("Cc1nnc(NS(=O)(=O)c2ccc(N)cc2)s1", "Solute carrier organic anion transporter family member 1B1 (Homo sapiens)", "residual activity", "%", 89.01),
    ("C[C@]12CCC3c4ccc(OC(=O)c5ccccc5)cc4CCC3C1CCC2=O (some centres undefined) [ESTRONE BENZOATE]", "Solute carrier organic anion transporter family member 1B1 (Homo sapiens)", "residual activity", "%", 121),
    ("C=C(C)[C@H]1CC=C(C(=O)O)CC1 [PERILLIC ACID (-)]", "Solute carrier organic anion transporter family member 1B1 (Homo sapiens)", "residual activity", "%", 102.2),
    ("COc1c2ccoc2c(OC)c2oc(=O)ccc12", "Solute carrier organic anion transporter family member 1B1 (Homo sapiens)", "residual activity", "%", 84.51),
    ("NC1(C(=O)O)CCC1", "Solute carrier organic anion transporter family member 1B1 (Homo sapiens)", "residual activity", "%", 131.1),
    ("O=c1cc(-c2ccc(O)cc2)oc2cc(O[C@@H]3O[C@H](CO)[C@@H](O)[C@H](O)[C@H]3O)cc(O)c12", "Solute carrier organic anion transporter family member 1B1 (Homo sapiens)", "residual activity", "%", 204.4),
    ("OC[C@H]1O[C@@H](O[C@@H]2[C@@H](CO)O[C@](O)(CO)[C@H]2O)[C@H](O)[C@@H](O)[C@H]1O", "Solute carrier organic anion transporter family member 1B1 (Homo sapiens)", "residual activity", "%", 90.31),
    ("O=c1[nH]c2ccccc2n1C1CCN(CCCC(c2ccc(F)cc2)c2ccc(F)cc2)CC1 [PIMOZIDE]", "Solute carrier organic anion transporter family member 1B1 (Homo sapiens)", "residual activity", "%", 167.9),
    ("CC(=O)Oc1ccc(/C=C/c2cc(OC(C)=O)cc(OC(C)=O)c2)cc1", "Solute carrier organic anion transporter family member 1B1 (Homo sapiens)", "residual activity", "%", 160.6),
    ("CC1=CC(=O)c2ccccc2C1=O", "Solute carrier organic anion transporter family member 1B1 (Homo sapiens)", "residual activity", "%", 157.5),
    ("COc1ccc2[nH]cc(CCNC(C)=O)c2c1", "Solute carrier organic anion transporter family member 1B1 (Homo sapiens)", "residual activity", "%", 71.02),
    ("C[C@H]1CC[C@]2(NC1)O[C@H]1C[C@H]3[C@@H]4CC[C@H]5C[C@@H](O[C@@H]6O[C@H](CO)[C@H](O[C@@H]7O[C@H](CO)[C@@H](O)[C@H](O[C@@H]8OC[C@@H](O)[C@H](O)[C@H]8O)[C@H]7O[C@@H]7O[C@H](CO)[C@@H](O)[C@H](O)[C@H]7O)[C@H](O)[C@H]6O)CC[C@]5(C)[C@H]4CC[C@]3(C)[C@H]1[C@@H]2C", "Solute carrier organic anion transporter family member 1B1 (Homo sapiens)", "residual activity", "%", 96.72),
    ("CCCCCC1C(=O)CCC1CC(=O)O (centres undefined) [DIHYDROJASMONIC ACID]", "Solute carrier organic anion transporter family member 1B1 (Homo sapiens)", "residual activity", "%", 113.7),
    ("COc1c2occc2cc2ccc(=O)oc12", "Solute carrier organic anion transporter family member 1B1 (Homo sapiens)", "residual activity", "%", 102.5),
    ("C=C[C@@]1(C)CC(=O)[C@]2(O)[C@@]3(C)[C@@H](O)CCC(C)(C)[C@@H]3[C@H](O)[C@H](OC(C)=O)[C@@]2(C)O1", "Solute carrier organic anion transporter family member 1B1 (Homo sapiens)", "residual activity", "%", 118.8),
    ("Nc1nc2ccc(OC(F)(F)F)cc2s1", "Solute carrier organic anion transporter family member 1B1 (Homo sapiens)", "residual activity", "%", 95.81),
    ("C[C@]12CCC(=O)C=C1CC[C@@H]1[C@@H]2[C@@H](O)C[C@@]2(C)[C@H]1CC[C@]2(O)C(=O)COC(=O)CCC(=O)O [HYDROCORTISONE HEMISUCCINATE ANHYDROUS]", "Solute carrier organic anion transporter family member 1B1 (Homo sapiens)", "residual activity", "%", 93.98),
    ("O=C(O)c1cc2cc(Cl)ccc2[nH]1", "Solute carrier organic anion transporter family member 1B1 (Homo sapiens)", "residual activity", "%", 75.02),
    ("CC(C)CC(N(C)C)C1(c2ccc(Cl)cc2)CCC1.Cl (centres undefined)", "Solute carrier organic anion transporter family member 1B1 (Homo sapiens)", "residual activity", "%", 96.94),
    ("C[C@]12CC[C@@H]3c4ccc(O)cc4CC[C@H]3[C@@H]1C[C@@H](O)[C@@H]2O", "Solute carrier organic anion transporter family member 1B1 (Homo sapiens)", "residual activity", "%", 110.2),
]
